Source: ChEMBL document CHEMBL4400520

Recorded MIC90 for the following compounds
Test system: Enterobacter cloacae
Assay: Antibacterial activity against Enterobacter cloacae
Assay type: functional

>  <smiles_text>
CCOC(=O)c1c(-c2ccc(OC)cc2)oc2ccc(OCCCCCCN3C(=O)/C(=N\OC)c4cc(F)ccc43)cc12

>  <MIC90, µg/mL>
0.5

$$$$
>  <smiles_text>
CCOC(=O)c1c(-c2ccc(F)cc2)oc2ccc(OCCCCCCN3C(=O)C(=O)c4cc(F)ccc43)cc12

>  <MIC90, µg/mL>
0.5

$$$$
>  <smiles_text>
CCOC(=O)c1c(-c2ccc(OC)cc2)oc2ccc(OCCCCCCN3C(=O)/C(=N\NC(N)=S)c4cc(F)ccc43)cc12

>  <MIC90, µg/mL>
0.5

$$$$
